# ASSAY_DETAILS: Plasma pharmacokinetics of phenolic metabolites after intake of the GCPE nutraceutical (LC-MS-QToF)
# MEASUREMENT_PARAMETERS: week 0, GCPE nutraceutical with 300 mg hydroxycinnamic acids, mean ± SEM, n = 9

- COMPOUND: "O=C(O)C=Cc1ccc(OC2OC(C(=O)O)C(O)C(O)C2O)cc1 (stereo not shown) [CoA-4′-glucuronide, Cinnamic acid-4′-glucuronide]"
  Cmax, nM: 39
- COMPOUND: "COc1cc(C=CC(=O)O)ccc1OS(=O)(=O)O [FA-4′-sulfate, 3′-Methoxycinnamic acid-4′-sulfate]"
  Cmax, nM: 17
- COMPOUND: "COc1ccc(CCC(=O)O)cc1O[C@@H]1O[C@H](C(=O)O)[C@@H](O)[C@H](O)[C@H]1O [DHiFA-3′-glucuronide]"
  Cmax, nM: 60
- COMPOUND: "O=C(O)CNC(=O)c1ccc(O)cc1 [4′-Hydroxyhippuric acid]"
  Cmax, nM: 80
